readout.kind: melting point

In: Output melting point of `CSc1nnc(-c2ccccc2)n1C`
Out: 134 to 135 °C

###

Recorded measurements of melting point, one per entry

Consider the following illustrative entries.
molecule="CS(=O)c1ccc(-n2cnc3ccc(-c4nnc(SCc5cccc(C(F)(F)F)c5)o4)cc32)cc1 (configuration not stated)" readout_kind="melting point" val="88 to 91 °C"
molecule=CCCCOC(=O)c1cc(OC(=O)OC)c2c(c1)C(=O)c1cccc(OC(=O)OC)c1C2=O readout_kind="melting point" val="200 to 202 °C"
molecule=Cc1c(O)c(=O)ccn1CCCO readout_kind="melting point" val="111 to 113 °C"
molecule=O=C(NCc1cc(C(F)(F)F)cc(C(F)(F)F)c1)c1c(-c2ccccc2)c2ccccc2[nH]c1=O readout_kind="melting point" val="251 to 252 °C"
molecule="COC(=O)CC(Sc1cc(C(C)(C)C)c(O)c(C(C)(C)C)c1)C(=O)OC (configuration not stated)" readout_kind="melting point" val="94 to 96 °C"
molecule=O=C1c2cccnc2N(N2CCCCC2)C2=NCCN12 readout_kind="melting point" val="206 to 207 °C"
molecule=COC(=O)c1cc(I)ccc1N=C=S readout_kind="melting point" val="60 to 62 °C"
molecule="CC1CN(c2ccc(C(=O)C(F)(F)F)cc2)N=C1NC(=O)C(F)(F)F (configuration not stated)" readout_kind="melting point" val="203 to 204 °C"
molecule="CC(=O)NCCCCCC1CCSS1 (configuration not stated)" readout_kind="melting point" val="28 to 33 °C"
molecule=CCOC(=O)Nc1ccc(OC(=O)NC)cc1C readout_kind="melting point" val="153 to 155 °C"

In: Output melting point of `CCOCc1nc2c(N)nc3ccc(OCc4cccnc4)cc3c2n1CC(C)C`
Out: 204 to 206 °C

In: Output melting point of `C[C@H](NC(=O)c1c(C(=O)O)cccc1[N+](=O)[O-])C(=O)N1CCC[C@H]1C(=O)O`
Out: 134 to 137 °C
